tested on: HUVEC; test: Growth inhibition of HUVEC after 24 hrs in presence of VEGF by MTT assay; type: cell-based; details: Homo sapiens
pIC50: −log10 of the molar value.
Measured Endpoint: pIC50

>>> df
                                    compound  assay_system  measured_endpoint  relation  measured_number
 0  CCc1ccc2nc(C(c3ccc(OC)c(OC)c3)n3cc(CCN(C)C)nn3)sc2c1 (configuration not stated)         HUVEC              pIC50         =             4.03
 1  CCc1ccc2nc(C(c3ccc(OC)c(OC)c3)n3cc(CCN4CCCC4)nn3)sc2c1 (configuration not stated)         HUVEC              pIC50         =             4.15
 2  CCCNCCc1cn(C(c2ccc(OC)c(OC)c2)c2nc3ccc(CC)cc3s2)nn1 (configuration not stated)         HUVEC              pIC50         =             4.41
 3  CCc1ccc2nc(C(c3ccc(OC)c(OC)c3)n3cc(CCN4CCOCC4)nn3)sc2c1 (configuration not stated)         HUVEC              pIC50         <             4.00
 4  CN(C)CCc1cn(C(c2ccc(O)c(O)c2)C2Oc3ccc(/C=C/OS(=O)(=O)O)cc3O2)cn1 (configuration not stated)         HUVEC              pIC50         <             4.00
 5  CCc1ccc2nc(C(c3ccc(O)c(O)c3)n3cc(CCN(C)C)nn3)oc2c1 (configuration not stated)         HUVEC              pIC50         <             4.00
 6  CCc1ccc2nc(C(c3ccc(OC)c(OC)c3)n3cc(CCNC4CCCC4)nn3)sc2c1 (configuration not stated)         HUVEC              pIC50         =             4.71
 7  CCc1ccc2c(c1)OC(C(c1ccc(O)c(O)c1)n1cc(CCN(C)C)nn1)O2 (configuration not stated)         HUVEC              pIC50         =             4.02
 8  CCN(CC)CCNC(=O)c1c(C)[nH]c(/C=C2\C(=O)Nc3ccc(F)cc32)c1C [SUNITINIB]         HUVEC              pIC50         =             5.00
 9  CCc1ccc2cc(C(c3ccc(O)c(O)c3)n3cc(CCN(C)C)nn3)oc2c1 (configuration not stated)         HUVEC              pIC50         =             4.66
10  CCc1ccc2nc(C(c3ccc(O)c(O)c3)n3cc(CCN(C)C)nn3)sc2c1 (configuration not stated)         HUVEC              pIC50         =             4.43
11  CCc1ccc2nc(C(c3ccc(OC)c(OC)c3)n3cc(CCN4CCCCC4)nn3)sc2c1 (configuration not stated)         HUVEC              pIC50         =             4.32

====

test: Apparent permeability from apical to basolateral side in MDCK cells at 10 uM by LC-MS/MS analysis; type: ADME, cell-based, Canis lupus familiaris; conditions: dog
Measured Endpoint: Papp A→B at 10 µM

                                   compound         result
0  CCc1ccc2nc(C(c3ccc(OC)c(OC)c3)n3cc(CCN4CCCCC4)nn3)sc2c1 (stereo unspecified)  11 ×10⁻⁶ cm/s
